Listed here: items and their measured max response.
# assay-comment: Cycloheximide Counterscreen for Small Molecule Inhibitors of Shiga Toxin
# details: cell reporter, cycloheximide protein synthesis inhibition counterscreen; active compounds read high
About 37,000 (12%) of roughly 300,000 compounds were called active. The entries come from a sample that favours actives as a whole.
Only the number, expressed in %, is required.

molecule: COc1ncnc2sc3c(c12)CCCC3
max response (%): -0.884
--
molecule: COc1ccc(Cc2nc(-c3ccccn3)no2)cc1OC
max response (%): 33
--
molecule: COc1ccc(CCNS(=O)(=O)c2cccc3cccnc23)cc1OC
max response (%): -1.86
--
molecule: CNC(=O)c1nnc(Cc2ccc(Cl)cc2)o1
max response (%): 11.5
--
molecule: COc1ccc(/C=N/Nc2ncnc3sc4c(c23)CCCC4)cc1O
max response (%): 27.5
--
molecule: COc1ccc(-c2noc(CN(C)S(=O)(=O)c3ccc(C)cc3)n2)cc1
max response (%): -2.54
--
molecule: Cc1cc(/C=N/n2cnnc2)c(C)n1-c1cccc(C(=O)O)c1
max response (%): 4.01
--
molecule: Cc1ccc(-n2c(C)cc(/C=N/Nc3ccc([N+](=O)[O-])cn3)c2C)c(C)c1
max response (%): 20.7

Form field: reported max response of `Cc1ccc(-c2noc(CC(c3ccccc3)c3ccccc3)n2)cc1` 11

Now this one: `Clc1ccc(Cc2nnc(-c3cccs3)o2)cc1` 32.7

Now try `COc1ccc(-c2noc(-c3ccc(C)cc3)n2)cc1` . 39.5

Again, but for `COc1ccc2[nH]c(=O)c(CN(Cc3cccnc3)S(=O)(=O)c3ccccc3F)cc2c1` -2.1

What would you report for `O=C(/C=C/c1cn(-c2ccccc2)nc1-c1ccc2c(c1)OCCO2)NCCCN1CCOCC1` ? 13.7

---

# assay-comment: Cycloheximide Counterscreen for Small Molecule Inhibitors of Shiga Toxin
# details: cell reporter, cycloheximide protein synthesis inhibition counterscreen; active compounds read high
About 37,000 (12%) of roughly 300,000 compounds were called active. The full list was thinned out, with actives kept by preference.
measure: max response

Request the reported max response associated with `COc1ccc(CC(=O)Nc2sc(Cc3ccccc3)c(C)c2C(N)=O)cc1` -4.58% (inactive)

---

# assay-comment: Cycloheximide Counterscreen for Small Molecule Inhibitors of Shiga Toxin
# details: cell reporter, cycloheximide protein synthesis inhibition counterscreen; active compounds read high
Hit rate of the full screen: of about 300,000 compounds, about 37,000 (12%) were called active. Many of the other results were omitted from the sample, so actives are more common in it than they were.
measure: max response (%)
# output: bare number, implied unit %

compound: O=C(Nc1ccccc1Cl)NC1(C(=O)N2CCOCC2)CCCCC1
quantity-unit: %
max response: -1.76

Quick one: max response for `COc1ccc(-c2nnc(SC(=O)N3c4ccccc4Sc4ccccc43)o2)cc1` ? 9.5

Next entry: `Cc1ccc(-n2c(SCC(=O)NCCC3=CCCCC3)nc3n[nH]c(C)c3c2=N)cc1Cl` -7.25

// same read-out, input: `CSc1ccc(/C=N/NC(=O)c2cccc(Cl)c2)cc1` 96.6

---

// reported max response per item
# assay-comment: Cycloheximide Counterscreen for Small Molecule Inhibitors of Shiga Toxin; further: read at 38.3 µM for the half of the compounds with a filed dose; 0% is about no effect
# details: cell reporter, cycloheximide protein synthesis inhibition counterscreen; active compounds read high
In all, about 300,000 compounds went through this assay and about 37,000 (12%) were called active. The sample as a whole holds a higher share of actives than the screen did.
Enter your answer as a number in %; do not include the unit.

Worked examples follow.
molecule: Cc1cc(C)cc(Oc2nc3c(C)cccn3c(=O)c2/C=C(\C#N)C(=O)NC2CCS(=O)(=O)C2)c1 (stereo not drawn)
measure: max response
measured-result: -2.61
--
molecule: CCN(CC)S(=O)(=O)c1ccc(N(C)Cc2cccc(OC)c2OC)nc1
measure: max response
measured-result: 10.4
--
molecule: COc1cc(C(=O)OC(C)C(=O)NCC2CCCCC2)cc(NC(=O)c2ccco2)c1OC (stereo not drawn)
measure: max response
measured-result: -2.06
--
molecule: O=C1CSC(=S)N1/N=C/c1ccc(O)c([N+](=O)[O-])c1
measure: max response
measured-result: 2.96

max response for `Cc1cccc(OC(=O)c2sc3ncn(C)c(=O)c3c2C)c1` ? 32.8

Cc1ccc(-n2nc3c(=O)n(C(C)C(=O)NCc4ccc5c(c4)OCO5)nc(C)c3c2C)cc1 (stereo not drawn) ? 7.33

Next entry: `O=C(N/N=C/c1coc2ccccc2c1=O)c1cc2ccccc2o1` 13.8

Now consider COC(=O)C1=C(Nc2ccc(C)cc2)C=C(C)C(C(=O)OC)C1c1ccc(F)cc1 (stereo not drawn) . 10.3

And the next one, `COc1cccc(N(C(=O)c2ccn[nH]2)C2(C(=O)Nc3c(C)cccc3C)CCCCC2)c1` ? -5.43

Same lookup for CC1Cc2ccccc2N1C(=O)c1cc2sccc2n1Cc1ccccc1 (stereo not drawn) , please. 10.4

And `COc1ccc(S(=O)(=O)N2CCC(C(=O)NCCC(=O)NCc3cccc(OC)c3)CC2)cc1` ? -2.91

---

# assay-comment: Cycloheximide Counterscreen for Small Molecule Inhibitors of Shiga Toxin; further: read at 38.3 µM for the half of the compounds with a filed dose; 0% is about no effect
# details: cell reporter, cycloheximide protein synthesis inhibition counterscreen; active compounds read high
About 37,000 (12%) of roughly 300,000 compounds were called active. The full list was thinned out, with actives kept by preference.
Recorded max response, one value per entry.
Write the answer as a number in %, unit excluded.

Reference set, count: 5
compound: COc1ccc(CNc2ncnc3ccccc23)cc1
measure: max response
quantity-unit: %
measured-result: -4.12
//
compound: Cc1cc2c(cc1S(=O)(=O)NCc1ccc(Cl)cc1)OCC(=O)N2
measure: max response
quantity-unit: %
measured-result: 1.87
//
compound: COC(=O)c1nc(NC(=O)c2ccc(C(C)(C)C)cc2)n[nH]1
measure: max response
quantity-unit: %
measured-result: 4.76
//
compound: COc1cc(/C=N\NC(=O)CNC(=O)c2cccc([N+](=O)[O-])c2)ccc1O
measure: max response
quantity-unit: %
measured-result: 2.84
//
compound: CCc1ccc(NC(=O)Cn2ncn3c(cc4ccccc43)c2=O)cc1
measure: max response
quantity-unit: %
measured-result: -4.36

Give the measured max response of `O=C(Oc1ccc(C(=S)N2CCOCC2)cc1)c1ccc(F)cc1` . -3.82

Note, next up: `Cc1ccc(C(=O)Nc2c(C#N)c(C)c(C)n2Cc2ccccc2)cc1` -2.66

Request: CN(CCc1ccccn1)C1CCCN(S(=O)(=O)c2ccccc2Cl)C1 (stereo not given) -3.81

Try this compound too: O=C(CC(NC(=O)c1ccccc1)c1ccccc1)Nc1ccc(F)c(F)c1 (stereo not given) 1.73

Let us now turn to `COc1cc(/C=N/NC(=O)c2ccoc2C)ccc1OCCN1CCCCC1` 15.6

---

Measured max response values are reported for all entries that follow.
# assay-comment: Cycloheximide Counterscreen for Small Molecule Inhibitors of Shiga Toxin; further: read at 38.3 µM for the half of the compounds with a filed dose; 0% is about no effect
# details: cell reporter, cycloheximide protein synthesis inhibition counterscreen; active compounds read high
Out of some 300,000 compounds screened, about 37,000 (12%) were called active. The sample as a whole holds a higher share of actives than the screen did.
Numeric only. Scale: %

Below, each entry is followed by its recorded max response result.
molecule: COc1cc(S(=O)(=O)N2CCOCC2)ccc1NC(=O)COc1ccc(N(C)S(=O)(=O)c2ccc(C)cc2)cc1
quantity-unit: %
measured-result: -7.22
--
molecule: COc1ccc2nc(NC(=O)[C@@H]3CCCN3C(=O)c3cccs3)sc2c1
quantity-unit: %
measured-result: 15.2
--
molecule: O=C(COc1ccc2c3c(c(=O)oc2c1)CCCC3)NCC(O)c1ccccc1 (stereo unspecified)
quantity-unit: %
measured-result: -1.36
--
molecule: COc1ccc2nc(NC(=O)NC3CCCCC3)sc2c1
quantity-unit: %
measured-result: 47.7
--
molecule: COc1ccc(-n2cnc3cc(C(=O)NC4CCCC4)ccc32)cc1
quantity-unit: %
measured-result: -1.06
--
molecule: COc1ccc(CCNS(=O)(=O)c2cn(C)nc2C)cc1
quantity-unit: %
measured-result: -0.628
--
molecule: COc1ccc(S(=O)(=O)N2CCN(C(=O)NC3CCCCC3)CC2)cc1
quantity-unit: %
measured-result: 1.04
--
molecule: COc1ccc2nc(NC(=O)c3ccc(Br)s3)sc2c1
quantity-unit: %
measured-result: 67.5
--
molecule: CC1CCN(c2ccc([N+](=O)[O-])c(SCCO)c2)CC1
quantity-unit: %
measured-result: 1.83
--
molecule: CCN(Cc1ccccc1)C(=O)CN1C(=S)NC(C)(C)CC1C (stereo unspecified)
quantity-unit: %
measured-result: -3.52

Field: next molecule
I would be grateful if you could share the reported max response for `CCOc1ccc2nc(NC(=O)c3cc([N+](=O)[O-])ccc3N3CCOCC3)sc2c1` . 11.9

---

# assay-comment: Cycloheximide Counterscreen for Small Molecule Inhibitors of Shiga Toxin; further: read at 38.3 µM for the half of the compounds with a filed dose; 0% is about no effect
# details: cell reporter, cycloheximide protein synthesis inhibition counterscreen; active compounds read high
Hit rate of the full screen: of about 300,000 compounds, about 37,000 (12%) were called active. The sample holds actives, similar compounds and a random draw of the others, so the mix is not that of the screen.
measure: max response (%)
Kindly provide the numeric value in % only, without the unit symbol.

# count of solved cases: 3
compound: C=CCN(N=Nc1cccc([N+](=O)[O-])c1)c1cccc([N+](=O)[O-])c1
measured-result: -2.01
--
compound: COc1cc(/C=N/O)ccc1OCc1ccc([N+](=O)[O-])cc1
measured-result: 88.7
--
compound: COC(C(=O)Nc1ccc(C(C)=O)cc1)c1ccccc1 (configuration not stated)
measured-result: -2.94

Can you share its max response? I mean this compound: COc1ccc(N2CCN(S(=O)(=O)c3ccc4c(c3)NC(=O)C(C)C(=O)N4)CC2)cc1 (configuration not stated) -1.38

Let us now turn to C=C(C)C1CC=C(C)C(O)C1 (configuration not stated) 7.86

// same read-out, input: `COc1cc(C(=O)OCc2ccc([N+](=O)[O-])cc2)cc(OC)c1OC` -1.24

Further, for CC(=O)N1c2ccc(S(=O)(=O)NCCC(=O)N(C)C3CCCCC3)cc2CC1C (configuration not stated) ? 10.2

Likewise for `O=C(NCCCN1CCOCC1)c1cc2c(s1)CCC2` ? 15.4

Consider next the compound `CCCCCCCCC(=O)NCCOc1ccccc1` in the same way. -1.44
